Item-by-item account of Biodistribution muscle
System: LNCaP tumor-bearing CB-17 SCID mice
Conditions: male, mouse, in vivo, 1 h

Example entries begin here.
{"columns": ["molecule", "Biodistribution muscle"],
 "data": [
  ["CC(C)(C)[Si](F)(c1ccc(C(=O)NC[C@@H](NC(=O)CC[C@H](C(=O)O)N2CCN(CC(=O)O)CCN(CC(=O)O)CCN(CC(=O)O)CC2)C(=O)N[C@H](CCCCNC(=O)CCC(=O)NCCC[C@@H](NC(=O)CC[C@H](NC(=O)N[C@@H](CCC(=O)O)C(=O)O)C(=O)O)C(=O)O)C(=O)O)cc1)C(C)(C)C [rhPSMA7.1, [^19F][^natGa]D-Dap-R-DOTAGA-rhPSMA7, metal not drawn]", "0.32 ± 0.30 % ID/g"],
  ["CC(C)(C)[Si](F)(c1ccc(C(=O)NC[C@H](NC(=O)CC[C@@H](C(=O)O)N2CCN(CC(=O)O)CCN(CC(=O)O)CCN(CC(=O)O)CC2)C(=O)N[C@H](CCCCNC(=O)CCC(=O)NCCC[C@@H](NC(=O)CC[C@H](NC(=O)N[C@@H](CCC(=O)O)C(=O)O)C(=O)O)C(=O)O)C(=O)O)cc1)C(C)(C)C [rhPSMA7.4, [^19F][^natGa]L-Dap-S-DOTAGA-rhPSMA7, metal not drawn]", "0.31 ± 0.08 % ID/g"],
  ["CC(C)(C)[Si](F)(c1ccc(C(=O)NC[C@H](NC(=O)CC[C@H](C(=O)O)N2CCN(CC(=O)O)CCN(CC(=O)O)CCN(CC(=O)O)CC2)C(=O)N[C@H](CCCCNC(=O)CCC(=O)NCCC[C@@H](NC(=O)CC[C@H](NC(=O)N[C@@H](CCC(=O)O)C(=O)O)C(=O)O)C(=O)O)C(=O)O)cc1)C(C)(C)C [rhPSMA7.2, [^19F][^natGa]L-Dap-R-DOTAGA-rhPSMA7, metal not drawn]", "0.13 ± 0.07 % ID/g"]
]}

Query CC(C)(C)[Si](F)(c1ccc(C(=O)NC[C@@H](NC(=O)CC[C@@H](C(=O)O)N2CCN(CC(=O)O)CCN(CC(=O)O)CCN(CC(=O)O)CC2)C(=O)N[C@H](CCCCNC(=O)CCC(=O)NCCC[C@@H](NC(=O)CC[C@H](NC(=O)N[C@@H](CCC(=O)O)C(=O)O)C(=O)O)C(=O)O)C(=O)O)cc1)C(C)(C)C [rhPSMA7.3, [^19F][^natGa]D-Dap-S-DOTAGA-rhPSMA7, metal not drawn] on LNCaP tumor-bearing CB-17 SCID mice; Biodistribution muscle returned: 0.33 ± 0.15 % ID/g

All figures here come from patent US12377176B2.
